Reported kon is given for each of the following binders.
Molecular target: Anti-hC5 Antibody
Sequence (constant, as listed by the source limits assumed): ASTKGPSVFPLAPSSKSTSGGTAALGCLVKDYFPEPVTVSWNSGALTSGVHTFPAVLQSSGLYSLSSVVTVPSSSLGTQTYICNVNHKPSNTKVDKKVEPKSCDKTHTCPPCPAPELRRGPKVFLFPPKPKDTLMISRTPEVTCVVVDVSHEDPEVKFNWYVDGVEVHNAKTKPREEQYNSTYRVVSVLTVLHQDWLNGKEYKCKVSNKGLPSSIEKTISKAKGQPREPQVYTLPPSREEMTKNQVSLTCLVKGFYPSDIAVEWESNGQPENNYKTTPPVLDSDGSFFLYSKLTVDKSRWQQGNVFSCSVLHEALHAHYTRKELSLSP
Assay: SPR (Biacore T200), 25 C, pH 7.4; SKA antibody captured by anti-rabbit IgG, Anti-hC5 Antibody injected 0-800 nM

binder	kon, M⁻¹ s⁻¹
SKA0054 (antibody, V domains shown) VH: QSLEESGGGLVQPEGSLTLTCTASGFSFSSSFWICWVRQAPGKGLEWLACIDAGSSDNTYYANWAKGRFTISKTSSTTVTLQMTSLTDADTATYFCARDRDAAGDAGYGYATSFNLWGPGTLVTVSS VL: AIDMTQTPSSVSAAVGGTVTINCQASESIYSNLAWYQQKPGQRPKLLIYLASTLASGVPSRFKGSGSGTEFTLTISDLECADAATYYCQSVYYDSRGDTFFWAFGGGTEVVVKG	27300
SKA0052 (antibody, V domains shown) VH: QSLEESGGDLVKSGASLTLTCTASGFSFSSSYYMCWVRQAPGKGLEWIACIYTGSNGDTYYASWANGRFTISKASSTTVTLQMTSLTAADTATYFCARYTYDDDGDYTSFNLWGPGTLVTVSS VL: ALVMTQTPSSVSADVGGTVTINCQASQNIYRNLAWYQQKPGQRPKLLIYGASNLEPGVPSRFKGSGSGTEFTLTISDLECDDAATYYCQSVGYSGSVDTFFYAFGGGTEVVVKG	108000
SKA0127 (antibody, V domains shown) VH: QSVEESGGRLVTPGTPLTLTCTVSGIDLSTYAMTWVRQAPGKGLEYIGYINGGGSAYYASWVNGRFTISKTSTTADLKITSPTTEDTATYFCARGPVGSYHRIWGPGTLVTVSS VL: ALVMTQTPSSVSEPVGGTVTINCRASEDIESYLAWYQQKPGQPPKLLIYATSNLETGVPSRFKGSGSGTDYTLTISGVQCADAATYYCQGYYELSSIDNNAFGGGTEVVVKG	71800
SKA0009 (antibody, V domains shown) VH: QSVEESGGRLVTPGTSLTLTCTVSGIDLSSYGMGWVRQAPGMGLEYIGIIYAAGRTYYASWVKGRFIISKTSTTVDLEMTSLTTEDTATYFCARHGSWYAGMDLWGPGTLVTVSS VL: AIEMTQTPSPVSAAVGGTVSINCQASEDIENYFAWYQQKPGQPPKLLIYDASELASGVPSRFSGSGSGTDFTLTISGVQCDDAATYYCQHADYAASSENTFGGGTEVVVKG	76900

Each recorded value in this set is attributed to patent US20220195070A1.
